pIC50 data for UniProt P08581 follow.
Sequence (P08581 25-1390): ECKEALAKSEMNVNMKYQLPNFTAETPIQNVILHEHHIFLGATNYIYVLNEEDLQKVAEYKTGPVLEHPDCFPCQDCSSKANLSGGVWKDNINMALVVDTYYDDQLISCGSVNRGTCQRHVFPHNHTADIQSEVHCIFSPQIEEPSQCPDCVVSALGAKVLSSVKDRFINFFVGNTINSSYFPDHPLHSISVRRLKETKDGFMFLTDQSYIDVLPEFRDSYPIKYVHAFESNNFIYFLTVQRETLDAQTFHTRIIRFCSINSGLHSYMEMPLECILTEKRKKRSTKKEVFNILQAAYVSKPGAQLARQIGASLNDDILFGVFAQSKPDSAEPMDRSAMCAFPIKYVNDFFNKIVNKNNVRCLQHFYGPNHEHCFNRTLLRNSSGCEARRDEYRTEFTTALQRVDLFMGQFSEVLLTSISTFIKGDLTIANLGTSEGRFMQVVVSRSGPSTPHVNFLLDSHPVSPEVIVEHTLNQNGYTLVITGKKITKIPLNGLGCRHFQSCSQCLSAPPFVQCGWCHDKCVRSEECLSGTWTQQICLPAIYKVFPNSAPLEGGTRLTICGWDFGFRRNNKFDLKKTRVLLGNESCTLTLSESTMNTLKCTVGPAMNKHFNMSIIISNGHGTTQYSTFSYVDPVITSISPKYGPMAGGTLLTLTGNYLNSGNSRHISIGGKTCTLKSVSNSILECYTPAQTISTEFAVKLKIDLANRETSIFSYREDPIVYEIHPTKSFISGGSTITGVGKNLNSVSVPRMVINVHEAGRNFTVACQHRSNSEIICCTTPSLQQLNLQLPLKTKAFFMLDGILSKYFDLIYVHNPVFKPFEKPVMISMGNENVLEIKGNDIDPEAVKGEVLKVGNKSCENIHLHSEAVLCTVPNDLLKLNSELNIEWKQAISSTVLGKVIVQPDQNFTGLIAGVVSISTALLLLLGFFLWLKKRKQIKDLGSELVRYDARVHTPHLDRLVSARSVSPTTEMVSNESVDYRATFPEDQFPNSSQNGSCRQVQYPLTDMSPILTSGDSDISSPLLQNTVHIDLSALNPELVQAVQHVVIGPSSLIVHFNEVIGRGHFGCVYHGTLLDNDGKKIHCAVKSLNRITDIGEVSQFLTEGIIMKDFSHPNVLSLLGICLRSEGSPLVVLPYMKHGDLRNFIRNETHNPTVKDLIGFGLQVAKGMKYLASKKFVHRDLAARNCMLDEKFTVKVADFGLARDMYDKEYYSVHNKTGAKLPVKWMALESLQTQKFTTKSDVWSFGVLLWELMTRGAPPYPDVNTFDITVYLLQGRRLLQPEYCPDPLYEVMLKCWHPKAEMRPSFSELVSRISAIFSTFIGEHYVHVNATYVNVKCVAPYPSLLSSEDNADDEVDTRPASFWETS
pIC50: −log10 of the molar value. Where a name gives a salt, the structure may show the parent alone.

# example entries with known answers
# compound, endpointResult
records = [
    ("NC(=O)N1CCC(n2cc(-c3cnc(N)c(-c4cc5c(Cl)ccc(F)c5cn4)c3)cn2)CC1 [Example 68, bis-hydrochloride]", "6.00 to 7.00"),
    ("CN(C)C(=O)N1CCC(n2cc(-c3cnc(N)c(-c4cc5ccccc5o4)c3)cn2)CC1 [Example 103, bis-hydrochloride]", "6.00 to 7.00"),
    ("Nc1ncc(-c2cnn(CC(=O)N3CCC(O)CC3)c2)cc1-c1nc2ccccc2s1 [Example 139]", "4.70 to 6.00"),
    ("Nc1ncc(-c2cnn(C3CCNCC3)c2)cc1-c1oc2ccccc2c1Br [Example 95, trifluoroacetate]", "4.70 to 6.00"),
    ("CN(C)C(=O)[C@@H]1C[C@H](n2cc(-c3cnc(N)c(-c4nc5ccccc5s4)c3)cn2)CN1 [Example 155]", "≥ 7.00"),
]

Value wanted: pIC50 (UniProt P08581) of entry CN(C)CCN(C)C(=O)c1cccc(-c2cnc(N)c(-c3nc4ccccc4s3)c2)c1 [Example 220]
6.00 to 7.00

Lab note: need pIC50 for Nc1ncc(-c2cnn(C3CCNCC3)c2)cc1-c1cc2ccc(F)c(Cl)c2cn1 [Example 38, trihydrochloride salt] on UniProt P08581, anyone have it?
≥ 7.00

Short answer please: pIC50, UniProt P08581, entry Nc1ncc(-c2ccc(OCC(=O)O)cc2)cc1-c1nc2ccccc2s1 [Example 237]
6.00 to 7.00

Query for UniProt P08581: what pIC50 does the record show for N#Cc1ccc2cc(-c3cc(-c4cnn(C5CCNCC5)c4)cnc3N)ncc2c1 [Example 32, trihydrochloride salt] ?
6.00 to 7.00

Test system UniProt P08581; read-out pIC50; what value for COc1ccc(Cl)c2cc(-c3cc(-c4cccc(C(=O)O)c4)cnc3N)ncc12 [Example 91] ?
< 4.70

Reported pIC50 for UniProt P08581, given Nc1ncc(-c2cnn(C3CCC4(CC3)OCCO4)c2)cc1-c1nc2ccccc2s1 [Example 124] ?
< 4.70

Please state recorded pIC50 (tested on UniProt P08581) of N#Cc1cccc2cc(-c3cc(-c4cnn(C5CCNCC5)c4)cnc3N)ncc12 [Example 36, trihydrochloride salt]
6.00 to 7.00

What reported pIC50 corresponds to Nc1ncc(-c2cnn(C3CCNCC3)c2)cc1-c1nc2cccc(-c3cc[nH]c3)c2s1 [Example 251, trifluoroacetate] on UniProt P08581?
6.00 to 7.00

Give the reported pIC50 for CC(=O)NCCNC(=O)c1cccc(-c2cnc(N)c(-c3nc4ccccc4s3)c2)c1 [Example 205] (system: UniProt P08581).
4.70 to 6.00

Form field - read-out: pIC50; system: UniProt P08581; submitted item: Nc1ncc(-c2cnn(C3CCNCC3)c2)cc1-c1ccc2ccccc2c1 [Example 304, trihydrochloride]
6.00 to 7.00

====

testedSystem: UniProt:Q04912
Sequence (Q04912 25-1400): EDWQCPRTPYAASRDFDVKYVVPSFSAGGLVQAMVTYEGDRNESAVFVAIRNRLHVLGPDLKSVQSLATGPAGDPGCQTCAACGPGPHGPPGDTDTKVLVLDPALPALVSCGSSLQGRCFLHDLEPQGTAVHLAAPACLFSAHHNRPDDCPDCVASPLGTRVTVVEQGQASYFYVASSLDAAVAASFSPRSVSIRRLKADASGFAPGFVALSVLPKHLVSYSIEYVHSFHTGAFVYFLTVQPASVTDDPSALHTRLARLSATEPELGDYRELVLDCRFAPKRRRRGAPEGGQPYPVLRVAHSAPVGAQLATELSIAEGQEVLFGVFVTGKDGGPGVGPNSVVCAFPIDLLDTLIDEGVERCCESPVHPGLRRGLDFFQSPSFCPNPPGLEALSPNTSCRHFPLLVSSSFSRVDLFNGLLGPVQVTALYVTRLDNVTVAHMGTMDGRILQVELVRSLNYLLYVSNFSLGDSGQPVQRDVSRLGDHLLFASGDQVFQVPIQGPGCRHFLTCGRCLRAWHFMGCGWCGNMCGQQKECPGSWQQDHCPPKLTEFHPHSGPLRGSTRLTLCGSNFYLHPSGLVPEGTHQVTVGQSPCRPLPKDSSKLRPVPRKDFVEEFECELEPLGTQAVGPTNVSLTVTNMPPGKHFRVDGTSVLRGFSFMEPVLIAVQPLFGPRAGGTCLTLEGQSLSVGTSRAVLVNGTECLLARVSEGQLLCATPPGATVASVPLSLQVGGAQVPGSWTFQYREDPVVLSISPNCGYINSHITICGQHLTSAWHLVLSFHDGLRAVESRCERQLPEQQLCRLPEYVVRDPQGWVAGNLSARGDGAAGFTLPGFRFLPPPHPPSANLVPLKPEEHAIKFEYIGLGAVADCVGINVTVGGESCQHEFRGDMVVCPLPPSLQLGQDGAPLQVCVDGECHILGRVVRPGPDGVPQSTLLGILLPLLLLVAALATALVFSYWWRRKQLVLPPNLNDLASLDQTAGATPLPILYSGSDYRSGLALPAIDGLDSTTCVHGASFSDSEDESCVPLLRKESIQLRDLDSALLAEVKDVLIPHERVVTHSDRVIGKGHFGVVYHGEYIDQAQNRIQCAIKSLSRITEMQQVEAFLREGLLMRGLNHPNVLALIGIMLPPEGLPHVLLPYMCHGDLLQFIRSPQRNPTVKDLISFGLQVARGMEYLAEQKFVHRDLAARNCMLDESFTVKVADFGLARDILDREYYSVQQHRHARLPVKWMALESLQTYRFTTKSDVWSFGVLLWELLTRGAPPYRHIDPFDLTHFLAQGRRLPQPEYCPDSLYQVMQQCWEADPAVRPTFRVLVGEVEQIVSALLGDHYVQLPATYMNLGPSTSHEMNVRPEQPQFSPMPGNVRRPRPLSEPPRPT
Structures can show the parent of a compound that is named as a salt.
measuredParameter: IC50

Worked examples, 6 molecules total:
# molecule, measuredParameter, endpointResult
data = [
    ("Nc1ncc(-c2cnn(C3CCNCC3)c2)cc1-c1cc2c(Cl)ccc(F)c2cn1 [Example 11, trihydrochloride]", "IC50", "0.1 to 1 µM"),
    ("Nc1ncc(-c2cnn(C3CCNCC3)c2)cc1-c1cc2cccc(C(F)(F)F)c2cn1 [Example 19, trihydrochloride salt]", "IC50", "0.1 to 1 µM"),
    ("Nc1ncc(-c2ccc(OCC(=O)NCCCN3CCCC3=O)cc2)cc1-c1nc2ccccc2s1", "IC50", "1 to 20 µM"),
    ("COCCN(CCOC)C(=O)c1cccc(-c2cnc(N)c(-c3nc4ccccc4s3)c2)c1", "IC50", "> 20 µM"),
    ("Nc1ncc(-c2cnn(C3CCNCC3)c2)cc1-c1cc2cccc(Cl)c2cn1 [Example 3, trihydrochloride]", "IC50", "≤ 0.1 µM"),
    ("CN1CCN(c2ncc(-c3cnc(N)c(-c4nc5ccccc5s4)c3)s2)CC1 [Example 121, dihydrochloride]", "IC50", "0.1 to 1 µM"),
]

What value of IC50 on UniProt:Q04912 does Nc1ncc(-c2cnn(C3CCNCC3)c2)cc1-c1nc2cccc(-c3ccc[nH]3)c2s1 [Example 249, dihydrochloride] have?
0.1 to 1 µM

Hi! What's the reported IC50 for Cc1c(-c2cc(-c3cnn(C4CCNCC4)c3)cnc2N)ncc2ccccc12 [Example 2, trihydrochloride] on UniProt:Q04912?
> 20 µM

Missing value: IC50, UniProt:Q04912, entry NC(=O)N1CCC(n2cc(-c3cnc(N)c(-c4cc5c(Cl)ccc(F)c5cn4)c3)cn2)CC1 [Example 68, bis-hydrochloride] . Fill in?
0.1 to 1 µM

Recorded IC50 for COCCNC(=O)Cn1cc(-c2cnc(N)c(-c3nc4ccccc4s3)c2)cn1 with UniProt:Q04912, please?
1 to 20 µM

Notebook: pull reported IC50 for UniProt:Q04912, entry Nc1ncc(-c2cnn(C3CCNCC3)c2)cc1-c1cc2ccc(Cl)cc2cn1 [Example 41, trihydrochloride]
1 to 20 µM

Return IC50 measured with UniProt:Q04912 given this molecule: Nc1ncc(-c2cnn(C3CCNCC3)c2)cc1-c1cc2cccc(Br)c2cn1 [Example 24, trihydrochloride salt]
0.1 to 1 µM

Please provide the recorded IC50 for Nc1ncc(-c2cnn(C3CCNCC3)c2)cc1-c1cc2c(Br)ccc(F)c2cn1 [Example 7, trihydrochloride] , tested on UniProt:Q04912.
0.1 to 1 µM

Under UniProt:Q04912: IC50 value of COCCN(CCOC)C(=O)Cn1cc(-c2cnc(N)c(-c3nc4ccccc4s3)c2)cn1 ?
1 to 20 µM

Each recorded value in this set is attributed to patent US8178668B2.
